tested on: HCT-116 colon; assay: NCI tumour cell line growth inhibition, 48 h
RECORDED_ENDPOINT: TGI

Fill in: TGI of `CCOc1cc(NC(C)=O)ccc1C(=O)N/N=C/c1ccco1` is ___ > 100 µM

Fill in: TGI of `COc1ccc(NC(=O)CSc2nnc(Cc3ccccc3)o2)cc1` is ___ > 100 µM

Fill in: TGI of `O=C(O)c1ccc([N+](=O)[O-])c(P(=O)(O)O)c1` is ___ > 100 µM

----------
tested on: HCT-15 colon; experiment: NCI tumour cell line growth inhibition, 48 h
Would you kindly list GI50 for each of these molecules?

Fill in: GI50 of NC(=O)c1ncn(C2OC(CO)C(O)C2O)n1 (centres undefined) is ___ 38.4 µM

Fill in: GI50 of `O=C(Nc1cccnc1)c1cccs1` is ___ 0.658 µM

Fill in: GI50 of `COc1ccc(C2=C(Br)C(=O)OC2)cc1Cl` is ___ 19.4 µM

Fill in: GI50 of `CCc1ccc(/C(C#N)=C/C=C/c2ccccc2)cc1` is ___ 0.897 µM
